Tested on: P-gp
assay-notes: In vivo microdialysis pharmacokinetics of free FLZ in blood and brain dialysates, with or without zosuquidar·3HCl pretreatment
Parameters: species or system rat
condition-set: rat, brain dialysate / blood dialysate, iv, with zosuquidar·3HCl 20 mg/kg i.v. 10 min before FLZ, FLZ + ZOSUQ-N: normal rats, zosuquidar·3HCl 20 mg/kg i.v. pretreatment, FLZ 35 mg/kg i.v.; read-out: Ri (AUCbrain/AUCblood)
observed-property: unbound brain-to-blood AUC ratio (Kp,uu)
// no unit, no text: just the number

compound COc1ccc(OC)c(C(=Cc2ccc(O)c(OC)c2)C(=O)NCCc2ccc(O)cc2)c1 , unbound brain-to-blood AUC ratio (Kp,uu) observed: 0.248
